# Tested on: α7 integrin (LacZ reporter in α7βgal+/− myoblasts)
# Assay summary: Myoblast α7+/LacZ integrin FDG assay (Burkin assay in myoblasts, 96-well)
# Format: cell-based, mouse
# Settings: Mus musculus, Myoblast, 48 h; 20 uM; α7+/LacZ myoblasts, 96-well; read-out: Burkin Assay in Myoblasts, signal relative to DMSO
The reader will find reported fold induction at 20 µM values listed item by item below.
# respond with the number and nothing more

[ask] Return reported fold induction at 20 µM; argument: COc1ccc(-c2cc(COc3ccccc3)on2)cc1 [MLS000695955-01]
[reply] 0.961

[ask] Return reported fold induction at 20 µM; argument: COc1ccc(N2CCN(C(=O)c3cc(C)on3)CC2)cc1 [MLS001124046-01]
[reply] 1.1

[ask] Return reported fold induction at 20 µM; argument: Nc1nccc(-c2ccc(-n3cnc4ccccc43)cc2)n1 [MLS000763405-01]
[reply] 1.47

[ask] Return reported fold induction at 20 µM; argument: COc1nccc(NCc2ccccc2)c1C#N [MLS001077207-01]
[reply] 1.01
